Measured growth, listed per entry.
tested on: U251 CNS; assay: NCI-60 one-dose screen, 48 h (100 = growth as untreated, 0 = no growth, -100 = all killed); details: 10 µM unless noted
Compounds without any hit were thinned out: in the full panel of roughly 83,000, 20% have a hit.

molecule: CC12CC[C@@H]3[C@]4(C)COC(c5cn[nH]c5-c5ccc(Cl)cc5)O[C@@H]4CC[C@@]3(C)[C@@H]1CC(C1=CCOC1=O)O2 (some centres undefined)
growth / %: 50

molecule: COc1cccc(/C=C/C(=O)c2ccc(OC)c(S(N)(=O)=O)c2)c1
growth / %: -31.2

molecule: S=C(NCCc1ccccc1)Nc1ccc(OCc2nc3ccccc3[nH]2)cc1
growth / %: 99.7

molecule: CC(=O)OCC1OC(OC2C(COC(C)=O)OC(n3cc(COc4ccc5ccc(=O)oc5c4)nn3)C(OC(C)=O)C2OC(C)=O)C(OC(C)=O)C(OC(C)=O)C1OC(C)=O (centres undefined)
growth / %: 106

molecule: COc1ccc(C2=NN(C(C)=O)C(c3ccc(OCc4ccc(Cl)cc4)c(OC)c3)C2)cc1OC (centres undefined)
growth / %: 46.8

molecule: O=c1oc2ccccc2cc1-c1csc(N=Nc2c(O)[nH]c3ccc(Cl)cc23)n1
growth / %: 101

molecule: S=C(Nc1ccccc1)Nc1ccc(OCc2nc3ccccc3[nH]2)cc1
growth / %: 34.5

molecule: CCCCSc1nc(NCCc2c[nH]c3ccccc23)c(C#N)c(-c2ccccc2)n1
growth / %: 8.25

molecule: O=C(N1c2ccccc2Sc2ccccc21)n1ccc2cccnc21
growth / %: 51.3

====

system: MDA-MB-435 melanoma; assay: NCI-60 one-dose screen, 48 h; settings: 10 µM unless noted
The panel holds about 83,000 compounds, 20% with a hit somewhere; the sample as a whole holds those more often. Active and inactive are the calls of the source. Rule for the calls: active = growth percent below 10; inactive = the rest.
Outcome codes: y for active, n for inactive

compound: CCC(C)(C)c1ccc(OCCCCN2CCN(c3ccncc3)CC2)cc1
label.value: n
--
compound: Cc1cc(N=C2NC(=O)CS2)n[nH]1
label.value: n
--
compound: CCS(=O)(=O)N1CCCC(C(=O)Nc2nc3ccc(NC(=O)c4ccc(F)c(OC)c4F)cc3s2)C1 (stereo not given)
label.value: n
--
compound: CN1CCN(c2ccc3c(c2)nc(NNC(=O)c2cnccn2)c2cccn23)CC1
label.value: y
--
compound: CCCCSc1nc(Nc2ccc(S(N)(=O)=O)cc2)c(C#N)c(-c2cc(OC)c(OC)c(OC)c2)n1
label.value: n
--
compound: CC1(c2cc3cc(Cl)ccc3oc2=O)NC(=O)c2c(/C=C/C(=O)OC3CC4CCC3(C)C4(C)C)cccc2N1 (stereo not given)
label.value: n
--
compound: O=C(c1ccc(Cl)cc1)c1ccc(OCCCN2CCN(c3ccncc3)CC2)cc1
label.value: n
--
compound: CC(=O)Nc1ccc(C(=O)NC(=S)Nc2ccc(S(N)(=O)=O)cc2)cc1
label.value: n
--
compound: Cn1cc(-c2cc(N)n3nc(-c4c[nH]c5ccccc45)cc3n2)c2cccnc21
label.value: y
--
compound: CSc1ccccc1NC(=O)c1ccc2nnn(/C(C#N)=C/c3ccccn3)c2c1
label.value: y
--
compound: Cc1ncsc1-c1ccc(CNC(=O)[C@@H]2C[C@@H](O)CN2C(=O)[C@@H](NC(=O)C2(F)CC2)C(C)(C)C)c(OCCOCCOCCOCCOc2nc(Nc3cc(S(C)(=O)=O)ccc3N[C@@H](c3cccc4c3OC(F)(F)O4)c3ncccc3Cl)nc(N3CCNCC3)n2)c1
label.value: n
--
compound: COc1ccc(C2=NN(c3ccccc3)C(c3ccc(OC)c(OCc4ccccc4)c3)C2)cc1OC (stereo not given)
label.value: n
--
compound: CN1CCN(/C(=N\c2sc(-c3ccccc3)nc2-c2ccccc2)c2ccccc2)CC1
label.value: n
--
compound: Cn1cc(-c2cc(N)n3nc(-c4cn(C)c5ncccc45)cc3n2)c2cccnc21
label.value: n
--
compound: CC(C)c1ccc2c(N)c(C(=O)Nc3ccc(C(F)(F)F)cn3)sc2n1
label.value: n
--
compound: CC1=C(C(=O)OCc2ccccc2)C(c2c(O)cc(O)cc2O)n2c(nc3ccccc32)N1 (stereo not given)
label.value: y
--
compound: COc1cc2nc(SCc3ccccc3)n(-c3ccc(Cl)cc3)c(=O)c2cc1OC
label.value: n
--
compound: COc1ccc(C(=O)/C=C/c2ccccc2Br)cc1S(N)(=O)=O
label.value: n
--
compound: N#Cc1c(NCc2ccccc2)n[nH]c1Nc1ccccc1
label.value: n
--
compound: CSc1ccc(NC(=O)c2ccc3nnn(/C(C#N)=C/c4ccccn4)c3c2)cc1
label.value: y
--
compound: COc1ccc2c(c1)C(=N/N=C(\C)c1ccc(OC)c(S(N)(=O)=O)c1)C(=O)N2
label.value: n
--
compound: COc1cc(-c2ccc(/C=N/NC(=O)c3[nH]c4ccc(Br)cc4c3-c3ccccc3)s2)cc(OC)c1OC
label.value: n
--
compound: COc1c(F)ccc(C(=O)Nc2ccc3nc(NC(=O)C4CCCN(S(=O)(=O)c5ccc(Br)s5)C4)sc3c2)c1F (stereo not given)
label.value: n
--
compound: CC1(C)CC[C@]2(C(=O)Nc3ccc(Br)cc3)CC[C@]3(C)C(=CCC4[C@@]5(C)C[C@@H](O)[C@H](O)[C@@](C)(CO)C5CC[C@]43C)C2C1 (stereo not given in full)
label.value: y
--
compound: COc1ccc(-c2nc(SC(C)C)nc(NCCc3c[nH]c4ccccc34)c2C#N)cc1
label.value: n

====

test system: MDA-MB-468 breast; assay: NCI-60 one-dose screen, 48 h (100 = growth as untreated, 0 = no growth, -100 = all killed); conditions: 10 µM unless noted
The panel holds about 83,000 compounds, 20% with a hit somewhere; the sample as a whole holds those more often.
Mark Condition met only for growth values smaller than 60%; exact matches and larger values are Condition not met.

smiles.str: N/C(=N\N=C\c1ccc([N+](=O)[O-])cc1)c1c(N)nc(=S)[nH]c1-c1ccc(Cl)cc1Cl
label.value: Condition not met
//
smiles.str: CCCCSc1nc(Nc2ccc(S(N)(=O)=O)cc2)c(C#N)c(-c2ccc(Cl)cc2)n1
label.value: Condition not met
//
smiles.str: COc1ccc(C(=O)/C=C/c2cccc(Br)c2)cc1S(N)(=O)=O
label.value: Condition met
//
smiles.str: CCCSc1nc(NCCc2c[nH]c3ccccc23)c(C#N)c(-c2ccc(OC)cc2)n1
label.value: Condition met
//
smiles.str: CCCCCCCCc1ccc(C(=O)Nc2ccc(C)cc2C(=O)O)cc1C
label.value: Condition not met
//
smiles.str: Cn1cc(NC(=O)c2cc(NC(=O)c3ccc(/C=C/c4ccccc4)cc3)cn2C)cc1C(=O)NCCCN1CCOCC1
label.value: Condition met
//
smiles.str: O=C(Cn1c(/C=C/c2ccccc2)nc2ccccc2c1=O)Nc1ccc(Cl)cc1
label.value: Condition met

====

test system: IGROV1 ovarian; assay: NCI-60 one-dose screen, 48 h (100 = growth as untreated, 0 = no growth, -100 = all killed); settings: 10 µM unless noted
Compounds without any hit were thinned out: in the full panel of roughly 83,000, 20% have a hit.
In this scheme, each record receives a class according to its growth; the ranges are LOW: < 20%; MEDIUM: ≥ 20% and < 60%; HIGH: ≥ 60%

molecule: O=C(NNc1ccccc1)n1c(=O)c2ccccc2c(=O)n1-c1ccccc1
label.value: HIGH
//
molecule: O=C(O)c1cccc(-c2ccc(/C=N/NC(=O)c3[nH]c4ccc(Br)cc4c3-c3ccccc3)s2)c1
label.value: MEDIUM
//
molecule: C=Cn1cc(C(=O)O)c(=O)c2cc(F)c(N3CCN(c4nccc(-c5nccs5)n4)CC3)cc21
label.value: LOW
//
molecule: CSc1ccc(NC(=O)c2ccc3nnn(/C(C#N)=C/c4ccccn4)c3c2)cc1
label.value: LOW
//
molecule: N#Cc1ccc(C(=O)Nn2c(N)cc3ccccc3c2=O)cc1
label.value: HIGH
//
molecule: COc1ccc(-c2ccnc(SCc3cc4cc(OC)ccc4[nH]c3=O)n2)cc1
label.value: MEDIUM
//
molecule: O=C(N1c2ccccc2Sc2ccccc21)n1ccc2cccnc21
label.value: HIGH
//
molecule: COc1ccc(C2=NN(C(C)=O)C(c3ccc(OCc4ccc(Cl)cc4)c(OC)c3)C2)cc1OC (stereo unspecified)
label.value: MEDIUM
//
molecule: N#Cc1ccc(/C=N/NC(=O)c2[nH]c3ccc(Br)cc3c2-c2ccccc2)o1
label.value: LOW
//
molecule: CC(=O)Nc1ccc(-n2cnc3cc(-c4ccc(O)cc4)ccc32)cc1C(F)(F)F
label.value: MEDIUM
//
molecule: C=C1CCC2C3(C)COC(c4cccc(F)c4)OC3CCC2(C)C1C/C=C1/C(=O)OCC1O (stereo unspecified)
label.value: LOW
//
molecule: COc1ccc(C(=O)/C=C/c2cccc(Cl)c2)cc1S(N)(=O)=O
label.value: LOW
//
molecule: Cc1ccc(C(=O)NN2C(=O)/C(=C/C=C/c3ccc([N+](=O)[O-])o3)SC2=S)cc1
label.value: LOW
//
molecule: CCCCNC(=S)Nc1ccc(OCc2nc3ccccc3[nH]2)cc1
label.value: HIGH
//
molecule: N#Cc1c(-c2cccc(Cl)c2Cl)cc(-c2c[nH]c3ccccc23)[nH]c1=O
label.value: HIGH
//
molecule: O=C(NNc1nc2cc(F)ccc2n2c(C(=O)N3CCN(C4CC4)CC3)ccc12)c1ncccn1
label.value: MEDIUM
//
molecule: COc1ccc2c(c1)c(-c1cc3nc(-c4cn(C)c5ncccc45)cc(N)n3n1)cn2C
label.value: LOW
//
molecule: CCCCCCn1c(O)c(N=Nc2nc(-c3cc4ccccc4oc3=O)cs2)c2ccccc21
label.value: LOW
//
molecule: Nc1nc(-c2ccccc2)c(N=Nc2ccc([N+](=O)[O-])cc2Cl)s1
label.value: HIGH
//
molecule: Nc1cc2ccccc2c(=O)n1NC(=O)c1ccc(I)cc1
label.value: HIGH
//
molecule: CCOC(=O)/C=C/c1cccc2c1C(=O)NC(C)(c1cc3cc(Br)ccc3oc1=O)N2 (stereo unspecified)
label.value: LOW
//
molecule: CCCSc1nc(Nc2ccc(S(N)(=O)=O)cc2)c(C#N)c(-c2cc(OC)c(OC)c(OC)c2)n1
label.value: MEDIUM
//
molecule: Cc1sc2c(c1C)C(c1ccc(Cl)cc1)=N[C@@H](CC(=O)NCCCCCNC(=O)COc1ccc(C3CCC(=O)NC3=O)cc1)c1nnc(C)n1-2 (stereo partly specified)
label.value: MEDIUM
//
molecule: COc1c(F)ccc(C(=O)Nc2ccc3nc(NC(=O)C4CCCN(S(=O)(=O)c5ccc(C(F)(F)F)cc5)C4)sc3c2)c1F (stereo unspecified)
label.value: HIGH
//
molecule: O=C(c1ccccc1)c1ccc2nc(-c3cccc(Cl)c3)[nH]c2c1
label.value: HIGH
//
molecule: Brc1ccc(N/N=C/c2c[nH]c3ccc(Br)cc23)nc1
label.value: LOW
//
molecule: Cc1occc1C(=O)NN1C(=O)/C(=C/C=C/c2ccc([N+](=O)[O-])o2)SC1=S
label.value: LOW
//
molecule: Cc1ccc(C(=O)CSc2nc3ccc(F)cc3c(=O)n2-c2ccc(Cl)cc2)cc1
label.value: HIGH

Where these numbers come from: PubChem BioAssay (NCI)
